// values below are reported mortality at 2.5 µg/mL
- Tested on: Plutella xylostella
- assay-summary: Insecticidal activity against Plutella xylostella, Airbrush spraying of cabbage leaf discs
- Type: in vivo
- conditions: foliar, 72 h, 2.5 mg/L, 3rd instar larvae, 3 days after administration
- Method: The compound to be determined was dissolved in a mixed solvent of acetone/methanol (1:1), followed by dilution with water containing 0.1% (wt) Tween 80 to a desired concentration. The activities of the respective compounds against Leucania separata, Plutella xylostella, and Chilo suppressalis were determined by Airbrush spraying method. […]

Consider the following illustrative entries.
{"compound": "CCOCC(=O)N(C(=O)c1ccc(C2=NOC(c3cc(Cl)cc(Cl)c3)(C(F)(F)F)C2)cc1C)[C@@H]1CON(CC)C1=O (mixture of isomers)", "target-system": "Plutella xylostella", "endpoint-value": "60%"}
{"compound": "CCN1OC[C@@H](N(C(=O)OC)C(=O)c2ccc(C3=NOC(c4cc(Cl)cc(Cl)c4)(C(F)(F)F)C3)cc2C)C1=O (stereo partly drawn) [Comparative compound, reference compound]", "target-system": "Plutella xylostella", "endpoint-value": "0%"}

Let's switch to this compound now.
Enquiry: Find the measured mortality at 2.5 µg/mL: item CCN1OC[C@@H](N(C(=O)COC)C(=O)c2ccc(C3=NOC(c4cc(Cl)cc(Cl)c4)(C(F)(F)F)C3)cc2C)C1=O (mixture of isomers) , target or system Plutella xylostella.
Return: 66.7%
